Cited source: paper PMC9516332

# tested_target: panel of 255 wild-type kinases (Homo sapiens)
# test_summary: Kinase panel profiling at 1 µmol/L (MSA or IMAP), percentage inhibition
# Format: biochemical
# conditions: kinase RET; 1 µmol/L single concentration; read-out: %-inhibition at 1 µmol/L, RET
// reported inhibition at 1 µM for each item listed
observed_property: inhibition at 1 µM

• CO[C@]1(C(=O)N[C@@H](C)c2ccc(-n3cc(F)cn3)nc2)CC[C@H](c2nc(C)cc(Nc3cc(C)[nH]n3)n2)CC1 = 99%
• CCn1c(=O)c(-c2cc(NC(=O)Nc3ccccc3)c(F)cc2Br)cc2cnc(NC)cc21 = 94%
• Cc1cc(Nc2ncnc3ccc(NC4=NC(C)(C)CO4)cc23)ccc1Oc1ccn2ncnc2c1 = 35%
• COC(=O)N[C@@H](C)CNc1nccc(-c2cn(C(C)C)nc2-c2cc(Cl)cc(NS(C)(=O)=O)c2F)n1 = -10%
• CCN1C(=O)N(c2c(F)c(OC)cc(OC)c2F)Cc2cnc3[nH]c(CN4CCOCC4)cc3c21 = 55%
• C=CC(=O)N1CCC([C@@H]2CCNc3c(C(N)=O)c(-c4ccc(Oc5ccccc5)cc4)nn32)CC1 = 16%
• CCc1nc(C(N)=O)c(Nc2ccc(N3CCC(N4CCN(C)CC4)CC3)c(OC)c2)nc1NC1CCOCC1 = 100%
• COc1ccc(CN2C3CC2CN(c2ccc(-c4cc(OCC(C)(C)O)cn5ncc(C#N)c45)cn2)C3)cn1 = 102%
• COc1cc2ncnc(Nc3ccc(F)c(Cl)c3)c2cc1NC(=O)/C=C/CN1CCCCC1 = 40%

----------
# tested_target: panel of 255 wild-type kinases (Homo sapiens)
# test_summary: Kinase panel profiling at 1 µmol/L (MSA or IMAP), percentage inhibition
# Type: biochemical
# conditions: p38γ; 1 µmol/L single concentration; read-out: %-inhibition, p38γ
The entries below are paired with their reported inhibition at 1 µM.
observed_property: inhibition at 1 µM (%)

- CN1CCN(c2ccc(C(=O)Nc3n[nH]c4ccc(Cc5cc(F)cc(F)c5)cc34)c(NC3CCOCC3)c2)CC1: -3
- CO[C@]1(C(=O)N[C@@H](C)c2ccc(-n3cc(F)cn3)nc2)CC[C@H](c2nc(C)cc(Nc3cc(C)[nH]n3)n2)CC1: -1.77
- O=C(Nc1cnn2ccc(N3CCC[C@@H]3c3cc(F)ccc3F)nc12)N1CC[C@H](O)C1: 2.3
- Cn1cnc2c(F)c(Nc3ccc(Br)cc3F)c(C(=O)NOCCO)cc21: 2

----------
# tested_target: panel of 255 wild-type kinases (Homo sapiens, UniProt Q9HBY8)
# Sequence (Q9HBY8 whole entry): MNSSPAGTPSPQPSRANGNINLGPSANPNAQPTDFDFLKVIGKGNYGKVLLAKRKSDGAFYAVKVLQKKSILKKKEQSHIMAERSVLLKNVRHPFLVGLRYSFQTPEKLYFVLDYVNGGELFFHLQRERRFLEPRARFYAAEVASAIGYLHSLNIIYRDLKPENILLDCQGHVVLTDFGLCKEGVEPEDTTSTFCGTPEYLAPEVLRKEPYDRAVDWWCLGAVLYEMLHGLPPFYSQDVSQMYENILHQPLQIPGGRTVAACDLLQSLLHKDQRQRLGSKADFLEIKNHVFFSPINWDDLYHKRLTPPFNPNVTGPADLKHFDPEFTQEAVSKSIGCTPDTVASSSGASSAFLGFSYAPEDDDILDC
# test_summary: Kinase panel profiling at 1 µmol/L (MSA or IMAP), percentage inhibition
# Assay type: biochemical
# conditions: kinase SGK2; 1 µmol/L single concentration; read-out: %-inhibition at 1 µmol/L, SGK2
observed_property: inhibition at 1 µM (%)

- FC(F)(F)c1ccc(CNc2ccc(Cc3c[nH]c4ncc(Cl)cc34)cn2)cn1: 8
- CCn1c(=O)c(-c2cc(NC(=O)Nc3ccccc3)c(F)cc2Br)cc2cnc(NC)cc21: -5
- C[C@H]1Oc2cc(cnc2N)-c2c(nn(C)c2C#N)CN(C)C(=O)c2ccc(F)cc21: 4.34
- Cn1cnc2c(F)c(Nc3ccc(Br)cc3Cl)c(C(=O)NOCCO)cc21: -5
- COc1cc2ncnc(Nc3ccc(F)c(Cl)c3)c2cc1NC(=O)/C=C/CN1CCCCC1: -9
- CCN1CCN(c2ccc(Nc3cc(N(C)C(=O)Nc4c(Cl)c(OC)cc(OC)c4Cl)ncn3)cc2)CC1: -8
- Cn1cc(-c2cc3c(N4CCN(c5ncc([C@@](C)(N)c6ccc(F)cc6)cn5)CC4)ncnn3c2)cn1: -4.22
- C[C@H](Nc1ncnc2nc[nH]c12)c1cc2cccc(Cl)c2c(=O)n1-c1ccccc1: -2.27
- CN1CCN(c2ccc(C(=O)Nc3n[nH]c4ccc(Cc5cc(F)cc(F)c5)cc34)c(NC3CCOCC3)c2)CC1: -3.18
- Cc1nc(NC(=O)N2CCC[C@H]2C(N)=O)sc1-c1ccnc(C(C)(C)C(F)(F)F)c1: -2
- CO[C@]1(C(=O)N[C@@H](C)c2ccc(-n3cc(F)cn3)nc2)CC[C@H](c2nc(C)cc(Nc3cc(C)[nH]n3)n2)CC1: 11
- Cn1cnc2c(F)c(Nc3ccc(Br)cc3F)c(C(=O)NOCCO)cc21: -0.294
